Below, each entry is listed with its recorded inhibition at 1 µM.
# System: 5-HT7 receptor (Homo sapiens)
# Construct: purchased PerkinElmer
# Sequence (P34969 whole entry): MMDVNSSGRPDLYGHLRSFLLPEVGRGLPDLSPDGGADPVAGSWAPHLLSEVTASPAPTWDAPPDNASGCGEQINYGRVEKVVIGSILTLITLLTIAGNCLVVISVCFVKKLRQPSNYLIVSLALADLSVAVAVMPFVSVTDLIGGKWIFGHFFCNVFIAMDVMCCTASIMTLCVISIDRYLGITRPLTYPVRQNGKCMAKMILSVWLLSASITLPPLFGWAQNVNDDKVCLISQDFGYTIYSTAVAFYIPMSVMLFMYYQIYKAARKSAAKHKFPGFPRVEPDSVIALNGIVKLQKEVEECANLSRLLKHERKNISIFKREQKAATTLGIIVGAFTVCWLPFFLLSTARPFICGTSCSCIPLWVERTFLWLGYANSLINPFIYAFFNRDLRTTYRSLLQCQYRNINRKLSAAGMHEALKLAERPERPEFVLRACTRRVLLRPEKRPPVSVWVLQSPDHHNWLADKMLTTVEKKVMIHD
# Protocol text: Radioligand binding assay, serotoninergic 5-HT7 receptors
# Test settings: binding assay result in %, Table 5a
# Source text: The specific ligand binding to the receptors is defined as the difference between the total binding and the non-specific binding determined in the presence of the excess of unlabelled ligand. The results are expressed as a percent of control specific binding ((measured specific binding/control specific binding)×100) and as a percent inhibition of control specific binding (100−((measured specific binding/control specific binding)×100)) obtained in the presence of the test compounds. […]
Please give a number only; it is taken to be in %.

Recorded inhibition at 1 µM, per entry:
O=S(=O)(NC1CCN(CCCc2noc3cc(F)ccc23)C1)c1cc2ccc(F)cc2s1 (stereo not drawn) : 97
O=S(=O)(NC1CCN(CCCc2noc3cc(F)ccc23)C1)c1cnc2ccccn12 (stereo not drawn) : 82
O=S(=O)(NC1CN(CCOc2cccc3[nH]ccc23)C1)c1ccc2ccccc2c1 : 99

Value of inhibition at 1 µM reported for the compound O=S(=O)(NC1CCN(CCCc2noc3cc(F)ccc23)CC1)c1cc2ccccc2s1 is 101

For record O=S(=O)(NCC1CN(CCOc2cccc3ccccc23)C1)c1ccc(F)c(F)c1 the listed inhibition at 1 µM is 105

// inhibition at 1 µM lookup, compound = O=S(=O)(NC1CCN(CCCc2c[nH]c3ccc(Cl)cc23)C1)c1ccc(F)cc1 (stereo not drawn) , result: 86

// sample O=S(=O)(NCC1CCN(CCOc2cccc3c2OCCO3)C1)c1cccc(O)c1 (stereo not drawn) , its inhibition at 1 µM was 98

// inhibition at 1 µM value for O=S(=O)(NCC1CN(CCOc2cccc3ccccc23)C1)c1cccc2ccccc12 : 92

# credit: patent US20140135310A1
